- SYSTEM_TESTED: T1, human big-ET-1 (SEQ ID NO:434) (Homo sapiens, UniProt P05305)
- T1 sequence (P05305 53-90 limits assumed): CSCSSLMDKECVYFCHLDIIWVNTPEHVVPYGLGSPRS
- MEASUREMENT_PROTOCOL: Surface plasmon resonance (Biacore) binding, mAb capture format, 37° C.
- CONDITIONS: analyte human big-ET-1, mAb capture
RESULT_TYPE: kd (s⁻¹)
Enter your answer as a number in s⁻¹; do not include the unit.

Prompt: Given the entry H4H6492N2: anti-big-ET-1 antibody, human IgG4 Fc; HCVR/LCVR SEQ ID NO: 418/426 (antibody, V domains shown, human IgG4 Fc) VH: EVQLVESGGGLVKPGGSLRVSCVASGFTFSNAWMTWVRQTPGKGLEWVGRIKSRTDGGTVDYVAPVKGRFTISRDDSKNTLYLQMNSLKAEDTAVYYCRADLDYWGQGTLVTVSS VL: DVVMTQSPLSLPVSLGQPASISCRSSQSLVHSDGITYLNWFQQRPGQSPRRLIYKISNRDSGVPDRFSGSGSGTDFTLKFSRVEAEDVGVYFCMQGTHWPYTFGQGTKLEIK , report its measured kd.
Completion: 0.0297
